B1: CPEB3 Ribozyme (parent)
chain: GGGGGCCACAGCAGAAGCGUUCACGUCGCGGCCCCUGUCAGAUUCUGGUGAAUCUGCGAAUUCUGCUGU

# Variants of: B1
# assay_protocol: self-cleavage, relative activity (ratio to wild type); higher = more cleavage; co-transcriptional
Values of self-cleavage greater than or equal to 0.2 map to YES; values below map to NO.

[
  {
    "variant_notation": "U21A G28C",
    "assigned_label": "NO"
  },
  {
    "variant_notation": "G2U U26G",
    "assigned_label": "NO"
  },
  {
    "variant_notation": "U26A G56U",
    "assigned_label": "YES"
  },
  {
    "variant_notation": "A23C G58C",
    "assigned_label": "YES"
  },
  {
    "variant_notation": "G19A U43G",
    "assigned_label": "YES"
  },
  {
    "variant_notation": "G47C U55C",
    "assigned_label": "YES"
  },
  {
    "variant_notation": "A8C U53G",
    "assigned_label": "YES"
  },
  {
    "variant_notation": "G5U A60G",
    "assigned_label": "NO"
  },
  {
    "variant_notation": "U20C U38G",
    "assigned_label": "YES"
  },
  {
    "variant_notation": "A59G G65C",
    "assigned_label": "YES"
  },
  {
    "variant_notation": "C29G U44C",
    "assigned_label": "YES"
  },
  {
    "variant_notation": "G11C U43C",
    "assigned_label": "YES"
  },
  {
    "variant_notation": "U21A U49G",
    "assigned_label": "YES"
  },
  {
    "variant_notation": "U20G C33G",
    "assigned_label": "YES"
  },
  {
    "variant_notation": "U53A G68U",
    "assigned_label": "YES"
  },
  {
    "variant_notation": "C39A G47U",
    "assigned_label": "YES"
  },
  {
    "variant_notation": "G5U A10U",
    "assigned_label": "YES"
  },
  {
    "variant_notation": "G19C G68C",
    "assigned_label": "NO"
  },
  {
    "variant_notation": "G3C U64A",
    "assigned_label": "NO"
  },
  {
    "variant_notation": "U46A G65U",
    "assigned_label": "YES"
  },
  {
    "variant_notation": "C6G U61C",
    "assigned_label": "NO"
  }
]

The origin of these recorded values is the RNAGym collection of RNA variant scans (doi:10.7554/elife.80360).
